The reported numbers originate from ChEMBL document CHEMBL3997794.

Target: Protein deacetylase HDAC6 (Homo sapiens) (UniProt Q9UBN7);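 further: enzyme assay on human HDAC6 with a fluorescein-tagged acetylated histone H4 peptide substrate, fluorescence read after 60 min, inhibition expressed versus untreated control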
Sequence (whole entry): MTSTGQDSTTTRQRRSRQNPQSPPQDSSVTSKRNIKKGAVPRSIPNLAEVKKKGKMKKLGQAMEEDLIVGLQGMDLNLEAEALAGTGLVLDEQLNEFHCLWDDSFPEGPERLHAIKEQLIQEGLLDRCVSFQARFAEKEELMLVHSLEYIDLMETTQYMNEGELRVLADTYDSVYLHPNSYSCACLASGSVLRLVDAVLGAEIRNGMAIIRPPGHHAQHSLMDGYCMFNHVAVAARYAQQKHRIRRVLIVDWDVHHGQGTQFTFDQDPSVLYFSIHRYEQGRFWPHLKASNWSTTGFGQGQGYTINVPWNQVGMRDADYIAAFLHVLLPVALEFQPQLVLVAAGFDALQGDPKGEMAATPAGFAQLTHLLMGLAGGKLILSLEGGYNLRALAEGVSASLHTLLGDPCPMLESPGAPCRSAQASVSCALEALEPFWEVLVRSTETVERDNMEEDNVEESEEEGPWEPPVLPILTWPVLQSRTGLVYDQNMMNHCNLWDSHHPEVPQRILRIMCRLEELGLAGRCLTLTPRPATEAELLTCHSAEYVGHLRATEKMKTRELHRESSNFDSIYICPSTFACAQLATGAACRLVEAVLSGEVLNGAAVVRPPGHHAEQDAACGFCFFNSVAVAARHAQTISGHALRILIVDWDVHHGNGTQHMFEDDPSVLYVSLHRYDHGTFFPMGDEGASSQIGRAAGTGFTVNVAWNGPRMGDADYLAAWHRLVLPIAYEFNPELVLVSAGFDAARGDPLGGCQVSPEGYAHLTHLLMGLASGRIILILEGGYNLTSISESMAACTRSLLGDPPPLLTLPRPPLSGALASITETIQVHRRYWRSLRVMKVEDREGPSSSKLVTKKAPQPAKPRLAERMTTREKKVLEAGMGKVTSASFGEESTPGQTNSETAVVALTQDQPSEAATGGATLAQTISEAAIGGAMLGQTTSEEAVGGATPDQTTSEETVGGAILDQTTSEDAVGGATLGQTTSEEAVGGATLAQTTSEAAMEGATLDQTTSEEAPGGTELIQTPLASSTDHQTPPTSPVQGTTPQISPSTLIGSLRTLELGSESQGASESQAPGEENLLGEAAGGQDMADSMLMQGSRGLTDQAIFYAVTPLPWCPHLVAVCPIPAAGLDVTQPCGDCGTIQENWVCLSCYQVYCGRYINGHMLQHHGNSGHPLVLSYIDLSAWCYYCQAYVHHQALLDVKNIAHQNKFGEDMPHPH
Conditions: at 30 µM
Description: Inhibition of human KDAC6 at 30 uM using FITC-labeled histone H4 acetylated peptide as substrate after 60 mins by fluorescence assay relative to control
# key: entry, value: inhibition

smiles-notation: COC(=O)CCCCN1C(=O)[C@H](C(C)C)N=C(c2ccccc2)c2ccccc21
inhibition (%): 0
//
smiles-notation: CC(C)(C)OC(=O)n1cc(C[C@@H]2N=C(c3ccccc3)c3ccccc3NC2=O)c2ccccc21
inhibition (%): 0
//
smiles-notation: COC(=O)CCCCN1C(=O)[C@H](CCCCNC(=O)OC(C)(C)C)N=C(c2ccccc2)c2ccccc21
inhibition (%): 0
//
smiles-notation: CC(C)(C)Oc1ccc(C[C@@H]2N=C(c3ccccc3)c3ccccc3N(CCCCC(=O)O)C2=O)cc1
inhibition (%): 0.28
//
smiles-notation: CC(C)(C)OC(=O)n1c(C[C@@H]2N=C(c3ccccc3)c3ccccc3N(CCCCC(=O)NO)C2=O)cc2ccccc21
inhibition (%): 85
//
smiles-notation: CC(C)(C)SC[C@H]1N=C(c2ccccc2)c2ccccc2N(CCCCC(=O)NO)C1=O
inhibition (%): 88
//
smiles-notation: CC(C)(C)OC[C@@H]1N=C(c2ccccc2)c2ccccc2N(CCCCC(=O)NO)C1=O
inhibition (%): 85.1
//
smiles-notation: O=C(CCCCN1C(=O)[C@H](Cc2ccccc2)N=C(c2ccccc2)c2ccccc21)NO
inhibition (%): 95.1
//
smiles-notation: C[C@@H](O)[C@@H]1N=C(c2ccccc2)c2ccccc2N(CCCCC(=O)NO)C1=O
inhibition (%): 70.1
